Entries and their IC50
targetSystem: LasB (Pseudomonas aeruginosa)
Sequence (Q02RJ6 198-498): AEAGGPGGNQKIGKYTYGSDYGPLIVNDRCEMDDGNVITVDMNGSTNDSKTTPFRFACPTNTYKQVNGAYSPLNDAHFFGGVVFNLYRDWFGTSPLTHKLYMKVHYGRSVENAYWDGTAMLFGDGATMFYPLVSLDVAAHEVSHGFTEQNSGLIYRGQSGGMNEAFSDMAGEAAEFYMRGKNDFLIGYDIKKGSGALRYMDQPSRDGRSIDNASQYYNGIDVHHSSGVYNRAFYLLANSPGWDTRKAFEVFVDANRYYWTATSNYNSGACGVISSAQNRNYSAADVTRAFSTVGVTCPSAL
testDescription: biochemical
Design: species or system P. aeruginosa
testParameters: IC50 against LasB
Please respond with the number in nM and leave the unit unwritten.

>>> observed("COc1ccc(NC(=O)C(CC(C)C)P(=O)(O)O)cc1 (stereo not drawn)")
52
>>> observed("COc1ccc2nc(NC(=O)C(S)Cc3ccccc3)sc2c1 (stereo not drawn)")
950

query: Quick one: IC50 for O=C(Nc1ccc([N+](=O)[O-])cc1)C(S)Cc1ccccc1 (stereo not drawn) ?
result: 970

query: Quick one: IC50 for CC(C)CC(C(=O)NC1CCN(c2ccc(Cl)cc2)CC1)P(=O)(O)O (stereo not drawn) ?
result: 1910
